parameter: melting point

# annotated cases, reported melting point shown
>  <smiles data>
Cc1c(-c2ccc(Cl)nc2)sc2nc(N)[nH]c(=O)c12

>  <melting point>
230 to 250 °C

$$$$
>  <smiles data>
Cl.O=C(NO)c1cc(NS(=O)(=O)Cc2ccccc2F)ccn1

>  <melting point>
209 to 216 °C

$$$$

Need melting point for each of these compounds.
1. O=C(NO)c1cc(N2CCOCC2)ccn1
2. Cc1c(-c2ccc(Cl)c(C(=O)N(C)C)c2)sc2nc(N)[nH]c(=O)c12
3. O=C(c1cc(-c2ccc(Cl)cc2)ccn1)N(O)Cc1ccccc1
4. Cc1c(-c2cccnc2)sc2nc(N)[nH]c(=O)c12

1: 215 to 220 °C (dec.); 2: 300 to 320 °C; 3: 190 to 195 °C; 4: 280 to 290 °C

----------
# Test system: influenza A virus A/Aichi/2/68 (H3N2)
# method description: Cytopathic effect (CPE) assay H3N2
# Assay type: cell-based, influenza A virus (H3N2) on MDCK cells
# particulars: Influenza A virus, H3N2, activity conc 5 (μM per method); read-out: CPE H3N2 reduction (%)
parameter: inhibition at 5 µM (%)
Give bare numbers, in %.

# annotated cases, reported inhibition at 5 µM shown
>  <compound>
Cc1c(-c2c(F)ccc(Cl)c2F)sc2nc(N)[nH]c(=O)c12

>  <tested target>
influenza A virus A/Aichi/2/68 (H3N2)

>  <value>
1.5

$$$$
>  <compound>
O=C(NO)c1cc(N2CCCCC2)ccn1

>  <tested target>
influenza A virus A/Aichi/2/68 (H3N2)

>  <value>
-4.1

$$$$
>  <compound>
O=C(c1cc(-c2ccc(Cl)c(Cl)c2)ccn1)N(O)Cc1ccccc1 [drawing 220]

>  <tested target>
influenza A virus A/Aichi/2/68 (H3N2)

>  <value>
8.1

$$$$
>  <compound>
NC(=O)c1ccc(-c2ccnc(C(=O)N(O)Cc3ccccc3)c2)cc1 [drawing 232]

>  <tested target>
influenza A virus A/Aichi/2/68 (H3N2)

>  <value>
-2.5

$$$$
>  <compound>
CCONC(=O)c1ccc(-c2ccccc2)cn1 [drawing 173]

>  <tested target>
influenza A virus A/Aichi/2/68 (H3N2)

>  <value>
-3

$$$$

Need inhibition at 5 µM for each of these compounds.
1. NC(=O)c1cccc(-c2ccnc(C(=O)N(O)Cc3ccccc3)c2)c1 [drawing 221]
2. CN(c1ccnc(C(=O)NO)c1)S(=O)(=O)Cc1ccccc1
3. O=C(NOCc1ccccc1)c1cc(N2CCCCC2)ccn1 [drawing 187]
4. O=C(NOCc1ccccc1)c1cc2ccccc2cn1 [drawing 182]

1: -2.7; 2: -1.7; 3: 1; 4: -1.5

Measured inhibition at 5 µM of O=C(NO)c1cc(NCc2ccccc2)ccn1 : -0.5

----------
# Test system: influenza A virus A/Aichi/2/68 (H3N2)
# method description: Cytopathic effect (CPE) assay H3N2
# Type: cell-based, influenza A virus (H3N2) on MDCK cells
# particulars: Influenza A virus, H3N2, activity conc 5 (μM per method); read-out: CPE H3N2 reduction (%)
parameter: inhibition at 5 µM (%)
Numbers only, in %.

>  <compound>
O=C(c1cc(N2CCCCC2)ccn1)N(O)Cc1ccccc1 [drawing 183]

>  <tested target>
influenza A virus A/Aichi/2/68 (H3N2)

>  <unit name>
%

>  <inhibition at 5 µM>
1.1

$$$$
>  <compound>
Cc1ccccc1-c1sc2nc(N)[nH]c(=O)c2c1C

>  <tested target>
influenza A virus A/Aichi/2/68 (H3N2)

>  <unit name>
%

>  <inhibition at 5 µM>
13.6

$$$$
>  <compound>
O=C(c1ccc(N2CCCC2)cn1)N(Cc1ccccc1)OCc1ccccc1 [drawing 178]

>  <tested target>
influenza A virus A/Aichi/2/68 (H3N2)

>  <unit name>
%

>  <inhibition at 5 µM>
-2.7

$$$$

Need inhibition at 5 µM for each of these compounds.
1. O=C(c1cc2ccccc2cn1)N(Cc1ccccc1)OCc1ccccc1 [drawing 179]
2. Cc1c(-c2ccccc2)sc2nc(N)[nH]c(=O)c12
3. CC1=C(c2cccc(F)c2)SC2N=C(N)NC(=O)C12 (stereo not shown)
4. CC(C)(C)OC(=O)N1CC=C(c2ccnc(C(=O)N(O)Cc3ccccc3)c2)CC1 [drawing 229]
5. CN(Cc1ccccc1)c1ccnc(C(=O)N(O)Cc2ccccc2)c1
6. O=C(c1cc(-c2cccc(CO)c2)ccn1)N(O)Cc1ccccc1 [drawing 240]
7. O=C(NO)c1cc(-c2ccc(Cl)cc2)ccn1

1.3
8.9
21.8
1.2
3.8
7.7
26.6

# credit: patent US20160297763A1
